B1: E3 ubiquitin-protein ligase NEDD4-like, residues 539 to 589; numbered along this chain, Q96PU5 (parent)
chain: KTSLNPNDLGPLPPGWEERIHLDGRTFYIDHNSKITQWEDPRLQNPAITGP

Variants of: B1
TEST_METHOD_NOTES: abundance fitness (aPCA) (normalised: wild type 0, dead -1); higher = more abundant; growth selection in yeast, the domain comes from the species named
CONDITION_SET: Homo sapiens
Property: abundance fitness; scope: individual variants

MUTANT_CODE: N32A
abundance fitness: -0.339

MUTANT_CODE: T49Q
abundance fitness: -0.199

MUTANT_CODE: R42M
abundance fitness: -0.718

MUTANT_CODE: G50T
abundance fitness: 0.166

MUTANT_CODE: G10R
abundance fitness: -0.263

MUTANT_CODE: D8S
abundance fitness: -0.147

MUTANT_CODE: Q37D
abundance fitness: -0.521

MUTANT_CODE: D30F
abundance fitness: -0.546

MUTANT_CODE: I35L
abundance fitness: -0.035

MUTANT_CODE: T36E
abundance fitness: -0.119

MUTANT_CODE: R42K
abundance fitness: -0.352

MUTANT_CODE: N5S
abundance fitness: -0.123

MUTANT_CODE: N5L
abundance fitness: -0.212

MUTANT_CODE: N45S
abundance fitness: -0.011

MUTANT_CODE: G24W
abundance fitness: -1.07

MUTANT_CODE: N7K
abundance fitness: -0.063

MUTANT_CODE: L43A
abundance fitness: 0.007

MUTANT_CODE: P14I
abundance fitness: -0.227

MUTANT_CODE: T26K
abundance fitness: 0.056

MUTANT_CODE: H21L
abundance fitness: -0.289

MUTANT_CODE: Y28V
abundance fitness: -0.696

MUTANT_CODE: N7D
abundance fitness: 0.044
